Value source: ChEMBL document CHEMBL4304743

- experiment-summary: Apparent clearance in Sprague-Dawley rat at 1 mg/kg, iv measured after 2 to 720 mins by LC-tandem mass spectrometry analysis
- Format: ADME, organism-based
- applied-conditions: in vivo, read-out: CL(app) (converted)
readout-name: clearance (mL/min/kg)
Report the figure in mL/min/kg without appending any unit label.

Need clearance of "O=C(CC(=O)Nc1ccc2c(/C=C/c3ccccn3)n[nH]c2c1)Nc1cccc(F)c1" , thanks.
55

---

Each entry below carries its reported GI50.
- Tested on: Mast/stem cell growth factor receptor Kit (Homo sapiens), P10721 [T670I]
- Sequence (P10721 whole entry T670I, the tested form may be a part): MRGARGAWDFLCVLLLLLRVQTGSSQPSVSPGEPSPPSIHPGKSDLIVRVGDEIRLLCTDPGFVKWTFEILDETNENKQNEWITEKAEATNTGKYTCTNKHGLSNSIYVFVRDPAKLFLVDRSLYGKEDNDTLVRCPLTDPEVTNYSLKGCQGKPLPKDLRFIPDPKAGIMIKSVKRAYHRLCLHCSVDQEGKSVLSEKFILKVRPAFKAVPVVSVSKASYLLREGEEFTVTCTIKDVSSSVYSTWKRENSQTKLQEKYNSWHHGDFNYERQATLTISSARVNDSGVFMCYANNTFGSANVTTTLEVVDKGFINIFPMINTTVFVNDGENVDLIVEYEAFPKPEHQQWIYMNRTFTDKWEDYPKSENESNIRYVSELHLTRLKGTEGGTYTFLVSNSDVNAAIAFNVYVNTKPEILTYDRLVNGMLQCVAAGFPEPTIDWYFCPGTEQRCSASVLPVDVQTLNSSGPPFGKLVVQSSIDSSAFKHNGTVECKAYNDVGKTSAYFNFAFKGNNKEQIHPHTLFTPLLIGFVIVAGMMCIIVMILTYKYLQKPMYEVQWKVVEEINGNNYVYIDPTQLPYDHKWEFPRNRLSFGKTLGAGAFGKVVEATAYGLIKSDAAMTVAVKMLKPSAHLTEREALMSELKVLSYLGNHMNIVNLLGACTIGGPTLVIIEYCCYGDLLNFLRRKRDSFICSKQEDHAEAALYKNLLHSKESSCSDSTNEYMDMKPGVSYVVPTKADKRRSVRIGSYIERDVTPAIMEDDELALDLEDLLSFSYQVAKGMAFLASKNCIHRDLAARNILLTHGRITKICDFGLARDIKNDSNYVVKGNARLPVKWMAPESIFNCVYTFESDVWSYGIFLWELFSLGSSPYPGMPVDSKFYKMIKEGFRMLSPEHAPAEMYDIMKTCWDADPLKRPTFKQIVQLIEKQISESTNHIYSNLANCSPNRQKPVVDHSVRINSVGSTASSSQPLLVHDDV
- experiment-summary: Inhibition of TEL fused c-KIT T670I mutant (unknown origin) transfected in mouse BAF3 cells assessed as growth inhibition after 72 hrs by CCK8 assay
- Assay type: cell-based
Report the figure in nM without appending any unit label.

The cases that follow already have their GI50 on record.
O=C(Nc1ccc(Cl)c(C(F)(F)F)c1)C1(C(=O)Nc2ccc3c(/C=C/c4ccccn4)n[nH]c3c2)CC1: 230
O=C(CC(=O)Nc1ccc2c(-c3cccc(F)c3)n[nH]c2c1)Nc1ccc(Cl)c(C(F)(F)F)c1: 179
O=C(CC(=O)Nc1ccc2c(-c3cccnc3)n[nH]c2c1)Nc1ccc(Cl)c(C(F)(F)F)c1: 45

Consider the additional compound presented here.
Need GI50 of "O=C(CC(=O)Nc1ccc2c(/C=C/c3ccccn3)n[nH]c2c1)Nc1cc(F)cc(F)c1" , thanks.
399
